Where do the numbers come from? From patent US12187713B2.

The following compounds are shown together with reported IC50 values.
# ASSAYED_TARGET: PD-1/PD-L1 (Homo sapiens (Human), UniProt Q9NZQ7)
# Sequence (Q9NZQ7 19-238): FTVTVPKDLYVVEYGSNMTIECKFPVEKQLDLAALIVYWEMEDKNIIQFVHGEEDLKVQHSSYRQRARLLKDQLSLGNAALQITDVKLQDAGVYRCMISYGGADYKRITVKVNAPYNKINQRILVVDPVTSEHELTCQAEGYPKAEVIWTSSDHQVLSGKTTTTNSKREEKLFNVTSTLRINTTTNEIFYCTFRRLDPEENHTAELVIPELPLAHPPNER
# METHOD_NOTES: PD-1/PD-L1 Binding Assay (Alphascreen)
# EXPERIMENTAL_PARAMETERS: range symbols

- COMPOUND: "Cc1c(-c2nc3c(o2)CCN(CCS(C)(=O)=O)C3)cccc1-c1cccc(-c2nc3cc(CN4CCC[C@H]4C(=O)O)c(OC(F)F)cc3o2)c1C [Example 185]"
  IC50: "0.1 to 5 nM"

I am curious: what IC50 value has been reported for Cc1c(-c2nc3cc(CN4CC(C#N)C4)c(OC(F)F)cc3o2)cccc1-c1cccc(-c2nc3cc(CN4CCC[C@H]4C(=O)O)c(OC(F)F)cc3o2)c1C [Example 80] ? 5 to 50 nM

Name the reported IC50 value associated with the compound Cc1c(-c2nc3cc(CN4CCC[C@H]4C(=O)O)c(OC(F)F)cc3o2)cccc1-c1cccc(-c2nc3ccc(CN4CC(C)(C)C4)cc3o2)c1Cl [Example 110] 0.1 to 5 nM

Bench note: what IC50 did Cc1c(-c2nc3cc(CN4CCC[C@H]4C(=O)O)c(OC(F)F)cc3o2)cccc1-c1cccc(-c2nc3cc(CN4CC(C)C(N)C4)cc(C#N)c3o2)c1C (some centres unmarked) [Example 156] show? 0.1 to 5 nM

Bench note: what IC50 did Cc1c(-c2ccc(CN3CCCC3)c(=O)[nH]2)cccc1-c1cccc(-c2nc3cc(CN4CCC[C@H]4C(=O)O)c(OC(F)F)cc3o2)c1C [Example 267] show? 5 to 50 nM

Given the entry Cc1c(-c2nc3cc(CN4CCC[C@H]4C(=O)O)c(OC(F)F)cc3o2)cccc1-c1cccc(-c2ccc(CN3CCCC3)cc2F)c1Br [Example 221] , report its measured IC50. 0.1 to 5 nM

Can you share its IC50? I mean this compound: Cc1c(-c2nc3cc(CN4CCC[C@H]4C(=O)O)c(OC(F)F)cc3o2)cccc1-c1cccc(-c2nc3cc(CNC4(C)COC4)cc(C#N)c3o2)c1C [Example 133] 0.1 to 5 nM

###

Reported pIC50 values follow for various compounds
# ASSAYED_TARGET: PD-1/PD-L1 (Homo sapiens (Human))
# METHOD_NOTES: PD-1/PD-L1 Binding Assay (Alphascreen)
# EXPERIMENTAL_PARAMETERS: numeric values
Scale: pIC50 equals -log10([C]), with [C] in mol/L.

- COMPOUND: "Cc1c(-c2nc3cc(CNCCO)c(OCc4cncc(C#N)c4)cc3o2)cccc1-c1cccc(-c2nc3cc(CN4CCC[C@H]4C(=O)O)c(OC(F)F)cc3o2)c1C [Example 120]"
  pIC50: 8.96
- COMPOUND: "Cc1c(-c2nc3cc(CN4CCCC4)c(OC(F)F)cc3o2)cccc1-c1cccc(-c2nc3cc(CN4CCC[C@H]4C(=O)O)c(OC(F)F)cc3o2)c1C [Example 5]"
  pIC50: 9.40

Returns the measured pIC50 for the input compound. Input: Cc1c(-c2nc3cc(CN4CCC(F)C4)c(OC(F)F)cc3o2)cccc1-c1cccc(-c2nc3cc(CN4CCC[C@H]4C(=O)O)c(OC(F)F)cc3o2)c1C (stereo partly drawn) [Example 10] 7.72

###

# METHOD_NOTES: Pharmacokinetic Assay, single oral dose 5 mg/kg (Table 12)
# Type: in vivo
# EXPERIMENTAL_PARAMETERS: mouse; plasma concentration, C57 female mice, single oral dose 5 mg/kg, 4 h
MEASURE_NAME: log10 concentration at 4 h (log10 of the value in ng/mL)
Friendly reminder: values = log10 of concentration at 4 h, unit ng/mL.

Known log10 concentration at 4 h results, listed for orientation:
- MOLECULE: "Cc1c(-c2nc3cc(CN4CCC[C@H]4C(=O)O)c(OC(F)F)cc3o2)cccc1-c1cccc(-c2nc3cc(CN4CCC(F)C4)cc(C#N)c3o2)c1C (stereo partly drawn)"
  log10 concentration at 4 h: 2.64
- MOLECULE: "Cc1c(-c2nc3cc(CN4CCC[C@H]4C(=O)O)c(OC(F)F)cc3o2)cccc1-c1cccc(-c2nc3cc(CN4CC[C@@H](C)C4)cnc3o2)c1C"
  log10 concentration at 4 h: 2.18
- MOLECULE: "Cc1c(-c2nc3cc(CN4CCC[C@H]4C(=O)O)c(OC(F)F)cc3o2)cccc1-c1cccc(-c2nc3cc(CN4CC(F)C(F)C4)cc(C#N)c3o2)c1C (stereo partly drawn)"
  log10 concentration at 4 h: 2.93
- MOLECULE: "Cc1c(-c2nc3cc(CN4CCC[C@H]4C(=O)O)c(OC(F)F)cc3o2)cccc1-c1cccc(-c2nc3cc(CN4CCCC4)c(F)c(F)c3n2CC(F)(F)F)c1C"
  log10 concentration at 4 h: 1.95
- MOLECULE: "Cc1c(-c2nc3c(o2)CCN(CCCC(F)(F)F)C3)cccc1-c1cccc(-c2nc3cc(CN4CCC[C@H]4C(=O)O)c(OC(F)F)cc3o2)c1C"
  log10 concentration at 4 h: 3.12
- MOLECULE: "Cc1c(-c2nc3cc(CN4CC=CC4)c(OC(F)F)cc3o2)cccc1-c1cccc(-c2nc3cc(CN4CCC[C@H]4C(=O)O)c(OC(F)F)cc3o2)c1C"
  log10 concentration at 4 h: 2.20
- MOLECULE: "Cc1c(-c2nc3cc(CN4CCCC4)c(OC(F)F)cc3o2)cccc1-c1cccc(-c2nc3cc(CN4CCC[C@@H]4C(=O)O)c(OC(F)F)cc3o2)c1C"
  log10 concentration at 4 h: 2.05
- MOLECULE: "Cc1c(-c2nc3cc(CN4C[C@@H](F)[C@H](F)C4)c(OC(F)F)cc3o2)cccc1-c1cccc(-c2nc3cc(CN4CCC[C@H]4C(=O)O)c(OC(F)F)cc3o2)c1C"
  log10 concentration at 4 h: 2.80
- MOLECULE: "Cc1c(-c2ccc(CN3CCC(F)C3)cc2)cccc1-c1cccc(-c2nc3cc(CN4CCC[C@H]4C(=O)O)c(OC(F)F)cc3o2)c1C (stereo partly drawn)"
  log10 concentration at 4 h: 2.31
- MOLECULE: "Cc1c(-c2nc3cc(CN4CCC[C@H]4C(=O)O)c(OC(F)F)cc3o2)cccc1-c1cccc(-c2nc3cc(CN4CCCC4)cc(C#N)c3o2)c1C"
  log10 concentration at 4 h: 2.33

Sample "COc1nc(-c2cccc(-c3cccc(-c4nc5cc(CN6CCC[C@H]6C(=O)O)c(OC(F)F)cc5o4)c3C)c2C)ccc1CN1CCC(C)(C)C1" — what was its log10 concentration at 4 h? 2.27

log10 concentration at 4 h lookup needed for "Cc1c(-c2nc3c(o2)CCC3)cccc1-c1cccc(-c2nc3cc(CN4CCC[C@H]4C(=O)O)c(OC(F)F)cc3o2)c1C" , thanks. 2.91
